Value source: paper PMC3894558

Tested on: P. falciparum 3D7 gametocytes
experimentNotes: alamarBlue gametocyte viability assay, strain 3D7
Assay type: cell-based, Plasmodium falciparum
setupConditions: Malaria Box; DMSO set at 0%, 100 nM epoxomicin set at -100%
// reported Max Resp per item
Hi! Could you send only the number? It should be in %, unit omitted.

Consider the reported Max Resp for these molecules:
>>> df
                                   molecule                    assaytarget  property  unitslabel  testvalue
0  Cc1cc(NC(=O)C2c3ccccc3C(=O)N(CC(C)C)C2c2cccs2)no1 (stereo not drawn) [MMV006429]  P. falciparum 3D7 gametocytes  Max Resp           %        -82
1  Cc1ccc2cc3c(N)c4c(C)ccc(C)c4nc3nc2c1 [MMV666079]  P. falciparum 3D7 gametocytes  Max Resp           %        -81

Now for a further molecule.
Could you tell me which Max Resp is on file for COc1cc(CNCCc2ccc(Cl)cc2)cc(OC)c1O [MMV128432] ?
-81
